From: patent US20250376535A1

# TGT: T1, 4-1BB Fc (human, UniProt Q07011 24-183)
# T1 construct: also called rh-41BB; 41BB-hFc
# TEST: ELISA, 4-1BB Fc coated, VHH at 50 nM
Listed next: entries and their corresponding OD450.
Respond using a number only.

# BINDER, MEASURED_NUMBER
data = [
    ("4-1BB-9 (VHH, not shown: small tags and cut ends) VHH: QVQLVESGGGLVQAGGSLRLSCAASGSIFSYNAVAWYRQAPGKQRELVAVITSGGETTKYADSVKGRFTISRDITKNAVDLQMVSLKPEDTAVYTCAALRNSGSTSWGQGTQVTVSS", 0.292),
]

Now consider a different binder.
// query May I ask what OD450 has been recorded for 4-1BB-56 (VHH, not shown: small tags and cut ends) VHH: QVQLVESGGGLVQTGGSLRLSCAASGRISTIDTMFWYRQTPGKERDWVAFIPKDGLPTYVDSVKGRFTVSRDNARNTVYLQMNGLKPEDTAVYYCAVDVQEDRMRTYWGQGTQVTVSS ?
// result 3.08
